subject.of.test: MK-3 (Homo sapiens, UniProt Q16644)
Sequence (Q16644 whole entry, species assumed): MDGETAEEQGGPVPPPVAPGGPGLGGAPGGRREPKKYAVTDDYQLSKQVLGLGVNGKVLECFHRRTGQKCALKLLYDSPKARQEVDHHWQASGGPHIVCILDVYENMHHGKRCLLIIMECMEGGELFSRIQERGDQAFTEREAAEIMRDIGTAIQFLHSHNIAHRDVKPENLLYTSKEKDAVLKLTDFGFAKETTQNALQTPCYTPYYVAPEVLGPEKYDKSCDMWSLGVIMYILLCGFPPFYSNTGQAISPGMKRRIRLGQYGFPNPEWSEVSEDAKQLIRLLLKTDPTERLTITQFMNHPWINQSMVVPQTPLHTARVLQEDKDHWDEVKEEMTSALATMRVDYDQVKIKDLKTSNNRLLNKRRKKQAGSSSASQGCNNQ
procedure.summary: MK-3 inhibition IC50 (similar method to MK-2, with appropriate modifications)
Assay type: biochemical
assay.conditions: Table 2, pyrazolylpyrazole MK-2 inhibitors; read-out: MK-3 Avg. IC50
property.measured: IC50

Query :: Reported IC50, compound NS(=O)(=O)c1ccc(-n2nc(C(=O)O)c3c2-c2cn[nH]c2CC3)cc1 [Example 40] : ____
Result :: ≥ 200 µM

Query :: Further, for CNC(=O)c1nn(-c2ccc(S(N)(=O)=O)cc2)c2c1CCc1c-2cnn1Cc1ccccc1 [Example 48] ?
Result :: ≥ 200 µM

Query :: Next compound up: O=C(O)c1c2c(nn1C1CCNCC1)-c1cn[nH]c1CC2 [Example 21]
Result :: ≥ 200 µM

Query :: Cool, now CCOC(=O)c1nn(-c2ccccc2)c2c1CCc1c-2cnn1Cc1ccccc1 [Example 55]
Result :: ≥ 200 µM
